# Measured on: hnRNPA2 1-189 (tandem RRMs) (UniProt P22626-2 1-189)
# Sequence (P22626 other isoform, or with tags, fused parts or gaps): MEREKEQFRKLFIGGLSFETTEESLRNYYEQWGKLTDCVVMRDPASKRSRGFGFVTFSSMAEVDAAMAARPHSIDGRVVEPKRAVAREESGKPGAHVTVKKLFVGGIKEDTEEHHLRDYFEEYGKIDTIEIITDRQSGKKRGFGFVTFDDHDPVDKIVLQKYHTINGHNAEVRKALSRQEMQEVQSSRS
# Experiment notes: ITC; 20 mM KPi pH 6.75, no NaCl; N about 1; ITC: 20 mM NaPi pH 6.75, 150 mM NaCl, 25 C (also 20 mM KPi pH 6.75; 20 mM MES pH 6.7, 150 mM NaCl, 10 mM CaCl2); protein in syringe, RNA in cell
# Study conditions: protein: recombinant; tags: His tag removed by TEV; single strand
pKd: −log10 of the molar value.
Quantity: pKd

Qu. Item GCCAAGGAGCC (ssRNA) [rA2RE11] has what recorded pKd?
Ans. ~4.46
